molecular target: human GCGR (Homo sapiens); test: Cellular functional assay, cAMP readout (glucagon-stimulated cAMP, LANCE TR-FRET); settings: HEK293 cells stably expressing full-length human GCGR; glucagon 100 pM; IC50 converted to Ki; read-out: Inhibition of cAMP Ki
Sequence (P47871 26-477): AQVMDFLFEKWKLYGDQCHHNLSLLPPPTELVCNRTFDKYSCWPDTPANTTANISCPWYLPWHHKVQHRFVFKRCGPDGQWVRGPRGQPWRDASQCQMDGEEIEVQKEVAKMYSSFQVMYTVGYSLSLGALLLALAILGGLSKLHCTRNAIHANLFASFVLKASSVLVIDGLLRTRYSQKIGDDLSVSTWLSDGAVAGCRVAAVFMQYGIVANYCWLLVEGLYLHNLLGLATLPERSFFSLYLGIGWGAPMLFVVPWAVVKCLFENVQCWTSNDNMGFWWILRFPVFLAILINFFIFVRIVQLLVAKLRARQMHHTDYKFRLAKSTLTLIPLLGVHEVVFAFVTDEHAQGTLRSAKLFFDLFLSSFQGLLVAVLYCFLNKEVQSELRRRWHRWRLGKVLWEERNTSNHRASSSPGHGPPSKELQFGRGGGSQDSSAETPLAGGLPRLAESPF
quantity_name: Ki (µM)

compound	unit_of_measure	Ki
CC(C)(C)CC(c1ccc(C(=O)NCCC(=O)O)cc1)n1ncc2cc(-c3ccc(C(F)(F)F)cc3)ccc21 (stereo not shown)	µM	0.095
O=C(O)CCNC(=O)c1ccc(C(C2CCCCC2)n2cc3cc(-c4ccc(C(F)(F)F)cc4)ccc3n2)cc1 (stereo not shown)	µM	0.135
Cc1cc(C(F)(F)F)ccc1-c1cc2cnn(C(CC(C)C)c3ccc(C(=O)NCCC(=O)O)nc3)c2cc1Cl (stereo not shown)	µM	0.16
COc1c(-c2ccc(C(F)(F)F)cc2C)ccc2c1cnn2C(CC(C)C)c1ccc(C(=O)NCCC(=O)O)nc1 (stereo not shown)	µM	0.075

A: CC(C)CC(c1ccc(C(=O)NCCC(=O)O)nc1)n1cc2cc(-c3ccc(Cl)cc3Cl)ccc2n1 (stereo not shown)
B: CC(C)CC(c1ccc(C(=O)NCCC(=O)O)cc1)n1ncc2cc(-c3cnn(C)c3)ccc21 (stereo not shown) [Compound #12]
# return whichever of A and B has the smaller Ki Answer = label. A

A: CCOc1c(-c2ccc(C(F)(F)F)cc2Cl)ccc2nn(C(CC(C)C)c3ccc(C(=O)NCCC(=O)O)nc3)cc12 (stereo not shown)
B: COc1c(-c2ccc(C(F)(F)F)cc2Cl)ccc2c1cnn2[C@@H](CC(C)C)c1ccc(C(=O)NCCC(=O)O)cc1
C: O=C(O)CCNC(=O)c1ccc(C(CCC2CCCCC2)n2cc3cc(-c4ccc(C(F)(F)F)cc4)ccc3n2)cc1 (stereo not shown)
Please list the entries, largest Ki first. // ordering of labels required in reply C, A, B

Source: patent US10000473B2
